The measured values listed here are drawn from patent US6849761B2.

inhibition at 40 µM by entry:
Target: human-derived recombinant PTPase-1B (hPTP-1B) (Homo sapiens, UniProt P18031)
Sequence (P18031 whole entry): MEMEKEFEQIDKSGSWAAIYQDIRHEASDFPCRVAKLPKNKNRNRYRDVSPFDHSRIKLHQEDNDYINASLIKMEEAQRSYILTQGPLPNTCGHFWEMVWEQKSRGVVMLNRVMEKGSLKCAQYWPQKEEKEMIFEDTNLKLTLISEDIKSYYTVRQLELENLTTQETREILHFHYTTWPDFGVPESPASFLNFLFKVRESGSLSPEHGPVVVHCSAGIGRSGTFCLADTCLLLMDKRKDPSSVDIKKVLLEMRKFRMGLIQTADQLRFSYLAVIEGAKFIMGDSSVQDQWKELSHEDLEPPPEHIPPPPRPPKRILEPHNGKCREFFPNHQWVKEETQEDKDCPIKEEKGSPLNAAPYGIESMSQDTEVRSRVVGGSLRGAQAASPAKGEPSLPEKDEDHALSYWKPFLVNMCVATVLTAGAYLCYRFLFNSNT
Experiment: PTP-1B inhibition assay (DIFMUP fluorescence kinetic assay)
Format: biochemical
Settings: inhibitor at 40 μM; 20 μM DIFMUP; 1 nM enzyme; calculated from average velocity Va vs control
Description: Measurement of PTPase activity: Compounds are assayed in an enzyme activity-based assay. PTP-1B is known to dephosphorylate phosphopeptides. This assay is a fluorescence intensity based kinetic assay, taking advantage of a non-peptidyl substrate, 6,8-difluoro-4-methylumbelliferyl phosphate (DIFMUP). When excited at 358 nm, the dephosphorylated product of DIFMUP emits at 450 nm. Examples 1-5 (set forth below) were analyzed as follows. […] The reaction progress was monitored continuously for 30 min. […]
Express the result in % but write the number alone.

Recorded inhibition at 40 µM, per entry:
| Molecule | Assay Target | inhibition at 40 µM / % |
| --- | --- | --- |
| COc1ccc2cc(C(=O)O)ccc2c1CNCc1ccc(N(C)C)cc1 [Example 4] | human-derived recombinant PTPase-1B (hPTP-1B) (Homo sapiens, UniProt P18031) | 34 |
| COc1ccc2cc(C(=O)O)ccc2c1CNCc1ccc(OC(F)(F)F)cc1 [Example 1] | human-derived recombinant PTPase-1B (hPTP-1B) (Homo sapiens, UniProt P18031) | 50 |

GET /values?readout=inhibition at 40 µM&item= COc1ccc2cc(C(=O)O)ccc2c1CNCc1ccc(F)cc1 [Example 2]
37

GET /values?readout=inhibition at 40 µM&item= COc1ccc2cc(C(=O)O)ccc2c1CNCc1ccc(S(N)(=O)=O)cc1 [Example 3]
23

GET /values?readout=inhibition at 40 µM&item= O=C(O)COc1ccc2cc(C(=O)O)ccc2c1CNCc1ccc(OC(F)(F)F)cc1 [Example 5]
38

* * *

melting point by entry:
Where a name gives a salt, the structure may show the parent alone.

Recorded melting point, per entry:
| Compound | Result |
| --- | --- |
| COc1ccc2cc(C(=O)O)ccc2c1CNCc1ccc(S(N)(=O)=O)cc1 (as salt: salt) | 283 to 285 °C (dec.) |
| COc1ccc2cc(C(=O)O)ccc2c1CNCc1ccc(F)cc1 (as salt: salt) | 268 to 270 °C (dec.) |
| COc1ccc2cc(C(=O)O)ccc2c1CNCc1ccc(N(C)C)cc1 (as salt: salt) | > 215 °C (dec.) |
| COc1ccc2cc(C(=O)O)ccc2c1CNCc1ccc(OC(F)(F)F)cc1 (as salt: salt) | 235 to 237 °C |

Next, consider the following compound.
GET /values?readout=melting point&item= "O=C(O)COc1ccc2cc(C(=O)O)ccc2c1CNCc1ccc(OC(F)(F)F)cc1"
> 266 °C (dec.)
